Values compiled from patent US20230105029A1.

target: T1, human IL4Rα expressed on 293F-IL4Rα cells (human, UniProt P24394 26-825); test: flow cytometry on 293F-IL4Rα cells
T1 construct: whole, on cells; also called cell surface human IL4Rα
Parameter EC50: see the listing below.
Give the value, in units of pM, as a plain number.

# annotated cases, reported EC50 shown
Please look at this binder and report its EC50: huB8G11F2B7G5E8-V14 (antibody, human IgG4 S228P, kappa, V domains shown, Humanized, human IgG4/kappa; also called huBSG11F2B7G5E8-V14) VH: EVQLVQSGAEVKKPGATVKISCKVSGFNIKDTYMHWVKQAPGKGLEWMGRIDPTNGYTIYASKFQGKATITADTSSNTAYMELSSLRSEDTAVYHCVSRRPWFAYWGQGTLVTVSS VL: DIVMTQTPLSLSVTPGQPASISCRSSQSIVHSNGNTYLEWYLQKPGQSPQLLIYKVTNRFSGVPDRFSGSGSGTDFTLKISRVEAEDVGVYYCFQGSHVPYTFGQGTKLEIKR
517

Please look at this binder and report its EC50: huB8G11F2B7G5E8-V4 (antibody, human IgG4 S228P, kappa, V domains shown, Humanized, human IgG4/kappa; also called huBSG11F2B7G5E8-V4) VH: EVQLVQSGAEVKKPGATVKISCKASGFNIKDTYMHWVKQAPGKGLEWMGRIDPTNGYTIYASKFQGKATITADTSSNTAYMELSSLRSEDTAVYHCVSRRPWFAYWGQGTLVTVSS VL: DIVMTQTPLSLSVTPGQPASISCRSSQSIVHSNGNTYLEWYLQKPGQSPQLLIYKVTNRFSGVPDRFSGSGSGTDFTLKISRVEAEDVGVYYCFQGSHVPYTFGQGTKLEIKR
414

Please look at this binder and report its EC50: mouse antibody B8G11F2B7G5E8 (antibody, V domains shown, Mouse hybridoma mAb; also called Mouse B8G11F2B7G5E8; mAb B8G11F2B7G5E8) VH: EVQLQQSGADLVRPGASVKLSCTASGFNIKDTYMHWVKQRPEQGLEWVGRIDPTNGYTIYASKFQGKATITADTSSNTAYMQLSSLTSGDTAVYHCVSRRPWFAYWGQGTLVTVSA VL: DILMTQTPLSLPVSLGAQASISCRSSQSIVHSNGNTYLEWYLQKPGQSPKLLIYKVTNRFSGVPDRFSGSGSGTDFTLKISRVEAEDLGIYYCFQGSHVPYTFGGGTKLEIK
325

Please look at this binder and report its EC50: huB8G11F2B7G5E8-V2 (antibody, human IgG4 S228P, kappa, V domains shown, Humanized, human IgG4/kappa; also called huBSG11F2B7G5E8-V2) VH: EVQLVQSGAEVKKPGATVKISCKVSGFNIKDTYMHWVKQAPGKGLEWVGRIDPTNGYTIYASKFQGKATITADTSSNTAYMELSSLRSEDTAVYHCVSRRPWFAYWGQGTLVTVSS VL: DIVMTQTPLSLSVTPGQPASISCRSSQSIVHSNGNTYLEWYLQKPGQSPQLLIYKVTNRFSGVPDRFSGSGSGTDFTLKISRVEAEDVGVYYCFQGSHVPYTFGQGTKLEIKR
426

Proceed to the following item.
Please look at this binder and report its EC50: chimeric antibody B8G11F2B7G5E8 (antibody, human IgG4 S228P, kappa, V domains shown, Mouse variable domains on human IgG4/kappa; also called Chimeric B8G11F2B7G5E8; chB8G11F2B7G5E8) VH: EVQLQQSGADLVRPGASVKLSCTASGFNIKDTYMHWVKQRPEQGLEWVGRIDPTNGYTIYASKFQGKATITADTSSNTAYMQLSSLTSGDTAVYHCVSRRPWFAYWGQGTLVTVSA VL: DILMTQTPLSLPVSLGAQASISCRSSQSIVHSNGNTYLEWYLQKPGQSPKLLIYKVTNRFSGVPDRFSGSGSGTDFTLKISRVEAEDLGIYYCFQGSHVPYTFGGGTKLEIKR
442
